B1: PRKX (parent)
chain: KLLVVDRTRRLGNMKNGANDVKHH

Variants of: B1
ASSAY_COMMENT: protein stability index of a GFP-peptide fusion (GPS, HEK-293T) (PSI 1-6); higher = more stable;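 further: lentivirally expressed fusions sorted by FACS into six bins by GFP to DsRed ratio, PSI derived from sequencing read proportions per bin multiplied by bin number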
STATED_CONDITIONS: c terminus: a fixed tail appended
Here the recorded protein stability index is given for each entry.
METRIC_NAME: protein stability index

sequence_variant=H24C endpoint_value=3
sequence_variant=N13Y endpoint_value=3
sequence_variant=H23C endpoint_value=2.94
sequence_variant=H24P endpoint_value=2.91
sequence_variant=H23G endpoint_value=2.92
sequence_variant=G17Q endpoint_value=3
